# System: TO-3-N3 (biotin conjugate)
# Protocol description: pull-down binding Z-score (relative to library population); higher = stronger binding
# Condition set: RNA library: Library-2
pull-down binding Z-score below -0.3 gives label 0; pull-down binding Z-score at or above it gives label 1.

- Construct sequence: "CUUCUGCUUCCUCUUAGCGCAGGAG [hsa-mir-1914]"
  Cat: "label 0"
- Construct sequence: "UAGCGUGCCUUUGUAAGCACAAGCUG"
  Cat: "label 1"
- Construct sequence: "AUGUCUGCUGGGGAACCGGGGCU [hsa-mir-4518]"
  Cat: "label 1"
- Construct sequence: "UGUUGCUUAUGAAAGUUUACGCCCUGACACACGUUAUGUGCUCAUGGAUGGCUCUAUUAUUCAAUUUCCUAACACCUACCUUGAAGGUUCUGUUAGAGUGGUAACA [SHAPE_invitro_SARS-CoV-2_Multi_27_ComplexLevel_1]"
  Cat: "label 0"
- Construct sequence: "UAAGUGUUAUAGCACUUA [hsa-mir-374a]"
  Cat: "label 0"
- Construct sequence: "CAGUUUGGUCCAACUUAUUUGGAUGGAGCUG"
  Cat: "label 0"
- Construct sequence: "GGGCUGUGACCACUGAAGUGGCAUUUGGCCU [IAV_invivo_M1_M2_7_Motif_9+IAV_invivo_M1_M2_7_Motif_9]"
  Cat: "label 1"
- Construct sequence: "CUGUUAAUGUAGCAUUUGAGCUUUGGGCUAAGCGCAACAUUAAACCAG"
  Cat: "label 1"
- Construct sequence: "AACAUUUACUUAUGCAUCAGCAUUGUGGGAAAUCCAACAGGUUGUAGAUGCAGAUAGUAAAAUUGUU [DMSMaPseq_invitro_SARS-CoV-2_Motif_222]"
  Cat: "label 1"

* * *

# System: TO-3-N3-2 (biotin conjugate)
# Protocol description: pull-down binding Z-score (relative to library population); higher = stronger binding
# Condition set: RNA library: Library-2
pull-down binding Z-score below -0.4 gives Not met; pull-down binding Z-score at or above it gives Met.

- Construct sequence: "GUUGGAUAAUGAUGCACUCAACAACAUUAUCAAC"
  Test system: "TO-3-N3-2 (biotin conjugate)"
  Cat: "Not met"
- Construct sequence: "CCGGGUGCCCACAAGACUGUG [hsa-mir-3138]"
  Test system: "TO-3-N3-2 (biotin conjugate)"
  Cat: "Met"
- Construct sequence: "AUUAGACAGAAAAAAGUUAGACACAAAAAAUUGUGUCUAAU [hsa-mir-4759]"
  Test system: "TO-3-N3-2 (biotin conjugate)"
  Cat: "Met"
- Construct sequence: "UAUAGGAAGGAAAUCUUAU [hsa-mir-6129]"
  Test system: "TO-3-N3-2 (biotin conjugate)"
  Cat: "Met"
- Construct sequence: "GCGCUGCCAGAAACUGGCGAGCGC [bulge-G]"
  Test system: "TO-3-N3-2 (biotin conjugate)"
  Cat: "Met"
- Construct sequence: "CAACUACUCAGGAGGCUG [hsa-mir-566]"
  Test system: "TO-3-N3-2 (biotin conjugate)"
  Cat: "Met"
- Construct sequence: "CAGAGGGAGGCCAAGAAGACCUCUG [hsa-mir-4793]"
  Test system: "TO-3-N3-2 (biotin conjugate)"
  Cat: "Not met"

* * *

# Test system: TO-N3-2 (biotin conjugate)
# Protocol description: pull-down binding Z-score (relative to library population); higher = stronger binding
# Condition set: RNA library: Library-2

- Construct sequence: "UUCAUUCAUUCGUUUGCACAUUCGGUGAA [hsa-mir-493]"
  pull-down binding Z-score: -0.394
- Construct sequence: "AUCAAGAAAAGAUUUGGUGUUCUUGAU [hsa-mir-4782]"
  pull-down binding Z-score: -0.784
- Construct sequence: "GUUUUUUAAGAGGAAGGGAGACCUAAGCUAGCA [hsa-mir-4481]"
  pull-down binding Z-score: 0.747
- Construct sequence: "GCAAACAUACAACGUGUUGU [SHAPE_invitro_SARS-CoV-2_Motif_281]"
  pull-down binding Z-score: -0.671
- Construct sequence: "GAUCUCUUGUAGAUC"
  pull-down binding Z-score: -0.498
- Construct sequence: "CAGACUUUAUGAGUGUCUCUAUAGAAAUAGAGAUGUUGACACAGACUUUGUGAAUGAGUUUUACGCAUAUUUGCGUAAACAUUUCUCAAUGAUGAUACUCUCUG"
  pull-down binding Z-score: -1.1
- Construct sequence: "ACCAUUCUUCGUAAGGGUGGU"
  pull-down binding Z-score: -0.847
- Construct sequence: "AACACCCAUCCCAGGAUUGCUGAUGGGUGUU [hsa-mir-5705]"
  pull-down binding Z-score: -0.282
- Construct sequence: "AACAGGACCUGUGCUCACUGGGGCCUGCA [hsa-mir-6797]"
  pull-down binding Z-score: 1.55
- Construct sequence: "UGACUACUUCGAAAAUGGGAAGUAGACA [hsa-mir-7849]"
  pull-down binding Z-score: -0.497
- Construct sequence: "CUGAUUCAGAAAGAUCAUCGG [hsa-mir-127]"
  pull-down binding Z-score: 0.226
- Construct sequence: "UUCAUGUUCACUGAAAGGUAGAUUUUAAAAACAUGAA [hsa-mir-4790]"
  pull-down binding Z-score: -0.575
- Construct sequence: "AUGUACAUCUUCUUUGCAUCAUUUUAUUAUGUAUGGAAAAGUUAUGUGCAU"
  pull-down binding Z-score: -1.44
- Construct sequence: "CUGGGCCAUAAGGACCAG [IAV_invivo_NP_5_Motif_20+IAV_invivo_NP_5_Motif_20]"
  pull-down binding Z-score: -0.786
- Construct sequence: "UGGUUUGUAACACAAAGGAAUUUUUAUGAACCA [SHAPE_invivo_SARS-CoV-2_Motif_466]"
  pull-down binding Z-score: -0.605
- Construct sequence: "GCGCUGCCAGAAACUGGCUUCAGCGC [bulge-UUC]"
  pull-down binding Z-score: -0.304
- Construct sequence: "ACCUUUAAUUGAAUUGUGCGUGGAUGAGGCUGGUUCUAAAUCACCCAUUCAGUACAUCGAUAUCGGU [SHAPE_invivo_SARS-CoV-2_Motif_532]"
  pull-down binding Z-score: -0.962
- Construct sequence: "UUAAAUGUGUCAUUUAAAAAUUCAG [hsa-mir-1972-1_1972-2]"
  pull-down binding Z-score: -0.257
- Construct sequence: "CCAUGUAAUCUUUGG [hsa-mir-1302-5]"
  pull-down binding Z-score: -0.0743
- Construct sequence: "GUUCGUGUUGUUUUAGAUUUCAUCUAAACGAAC"
  pull-down binding Z-score: -0.397
- Construct sequence: "CAGGGAACUUUAAAACC [hsa-mir-4324]"
  pull-down binding Z-score: 0.306
- Construct sequence: "UCUUAGCACGGGGUCUAAGG [hsa-mir-4747]"
  pull-down binding Z-score: -0.257
- Construct sequence: "AGAACAGAUAUAUCCACAGUACACUUGGCUGUUCU [hsa-mir-4753]"
  pull-down binding Z-score: -0.635
- Construct sequence: "CGGAGCCUCGCAGGGUCGGGCUCGGGCUCCCUAACCGUCUCCGCUUCUUC [hsa-mir-6084]"
  pull-down binding Z-score: 1.77
- Construct sequence: "CUGUCCCCUGCCACUGGGUGACC [hsa-mir-7114]"
  pull-down binding Z-score: 0.894
- Construct sequence: "GCACCAUUAUUAUCAGCUGGUAUUUUUGGUGC"
  pull-down binding Z-score: -1.18
- Construct sequence: "ACAUCUCUGGCAUUAAUGCUUCAGUUGU [SHAPE_invivo_SARS-CoV-2_Motif_471]"
  pull-down binding Z-score: -1.06
- Construct sequence: "UCUGCUCGCAUAGUGUAUACAGCUUGCUCUCAUGCCGCUGUUGAUGCACUAUGUGAGAAGGCAUUAAAAUAUUUGCCUAUAGA"
  pull-down binding Z-score: -0.0527
- Construct sequence: "CAUUACUUUAUGAUG [SHAPE_invitro_SARS-CoV-2_Motif_468]"
  pull-down binding Z-score: -1.02
- Construct sequence: "AGUCACUUAGAUUACAUGUCACU [hsa-mir-892c]"
  pull-down binding Z-score: -0.486

* * *

# Test system: TO-N3-2 (biotin conjugate)
# Protocol description: pull-down binding Z-score (relative to library population); higher = stronger binding
# Condition set: RNA library: Library-2

- Construct sequence: "CACGUGCUGCUUGUAUAGACAUGAG [hsa-mir-3659]"
  pull-down binding Z-score: 0.528
- Construct sequence: "UUAUCUGUCACCAGUCAGAUAACUGUCACCAGUCAGUUAA [hsa-mir-4764]"
  pull-down binding Z-score: -0.396
- Construct sequence: "GACGUGAAGGGACCACAUCCCGCUUCAUGUC [hsa-mir-4697]"
  pull-down binding Z-score: 0.229
- Construct sequence: "GACUACUAGCGUGCCUUUGUAAGCACAAGCUGAUGAGUACGAACUUAUGUACUCAUUCGUUUCGGAAGAGACAGGUACGUUAAUAGUU [SHAPE_invitro_SARS-CoV-2_Multi_71_ComplexLevel_1]"
  pull-down binding Z-score: 0.672
- Construct sequence: "GCGCCGCCAGAAACUGGCUGCGC [mismatch-CU]"
  pull-down binding Z-score: -0.671
- Construct sequence: "AGGUUGGACAGCUGGUGCUGCAGCUU [SHAPE_invivo_SARS-CoV-2_Motif_420]"
  pull-down binding Z-score: 0.891
- Construct sequence: "GGCUCUGGGUCCUGCUCCUUAGAGCA [hsa-mir-2467]"
  pull-down binding Z-score: 0.837
